- procedure-summary: Tissue distribution study in rabbits after oral Panax notoginseng extract with or without Borneol
- Type: in vivo, New Zealand rabbits
- condition-parameters: New Zealand, rabbit, plasma, po, 0.5 h, oral Panax notoginseng with Borneol, read-out: Concentration in plasma
- Method: Frozen plasma and tissue samples were thawed in a water bath at 37°C and were then vortexed followed by centrifuging at 5000 r·min^−1 for 5 min. An aliquot of 1.0 mL of the supernatant from each sample was loaded onto C18 Bond Elute Solid phase extraction (SPE) cartridges (1000 mg, 1 cc reservoir, Varian, Harbor City, CA, USA) pretreated with 2.0 mL hexane, isopropanol, methanol, and water, sequentially. […]
For each of the compounds below, state its concentration at 0.5 h.
Answers are plain numbers, in ng/mL.

| compound | concentration at 0.5 h (ng/mL) |
| --- | --- |
| CC(C)=CCC[C@](C)(O[C@@H]1O[C@H](CO)[C@@H](O)[C@H](O)[C@H]1O)[C@H]1CC[C@]2(C)[C@@H]1[C@H](O)C[C@@H]1[C@@]3(C)CC[C@H](O)C(C)(C)[C@@H]3[C@@H](O[C@@H]3O[C@H](CO)[C@@H](O)[C@H](O)[C@H]3O)C[C@]12C [GRg1, ginsenoside Rg1] | 2870 |

Shift focus to the following entry.
Field request: concentration at 0.5 h | item: CC(C)=CCC[C@](C)(O[C@@H]1O[C@H](CO)[C@@H](O)[C@H](O)[C@H]1O)[C@H]1CC[C@]2(C)[C@@H]1[C@H](O)C[C@@H]1[C@@]3(C)CC[C@H](O)C(C)(C)[C@@H]3[C@@H](O[C@@H]3O[C@H](CO)[C@@H](O)[C@H](O)[C@H]3O[C@@H]3O[C@@H](C)[C@H](O)[C@@H](O)[C@H]3O)C[C@]12C [GRe, ginsenoside Re]
2680
